target: human PAD4 (Homo sapiens, UniProt Q9UM07); construct: human PAD4 (NM_012387), A2P663, was PCR amplified; His-SUMO (N, cleaved yes); assay: In vitro PAD4 BAEE biochemical assay; conditions: human PAD4, BAEE substrate; 5 nM PAD4, 2 mM calcium chloride, 3 mM BAEE; geometric mean of multiple experiments
Sequence (Q9UM07 2-663): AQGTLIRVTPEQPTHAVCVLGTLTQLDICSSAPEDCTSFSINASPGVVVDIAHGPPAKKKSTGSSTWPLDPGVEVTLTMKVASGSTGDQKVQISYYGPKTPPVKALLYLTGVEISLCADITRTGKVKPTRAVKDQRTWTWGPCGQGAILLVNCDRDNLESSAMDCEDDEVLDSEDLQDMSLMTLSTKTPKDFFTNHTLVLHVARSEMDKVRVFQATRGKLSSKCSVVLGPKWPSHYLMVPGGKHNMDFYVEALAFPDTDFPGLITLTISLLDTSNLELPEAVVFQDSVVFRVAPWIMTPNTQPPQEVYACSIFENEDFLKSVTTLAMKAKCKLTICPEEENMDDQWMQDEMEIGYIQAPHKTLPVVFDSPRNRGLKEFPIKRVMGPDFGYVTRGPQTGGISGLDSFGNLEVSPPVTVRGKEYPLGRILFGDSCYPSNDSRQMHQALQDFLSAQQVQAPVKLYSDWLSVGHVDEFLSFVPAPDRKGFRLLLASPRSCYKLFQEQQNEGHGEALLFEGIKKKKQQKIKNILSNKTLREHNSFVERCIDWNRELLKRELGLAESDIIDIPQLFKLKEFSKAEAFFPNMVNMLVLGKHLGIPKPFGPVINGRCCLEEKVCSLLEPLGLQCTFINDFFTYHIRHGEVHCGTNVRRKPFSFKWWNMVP
In this section, each of the molecules is paired with its reported pIC50.
Units for pIC50: none; it is -log10 of a concentration expressed in mol/L.

molecule	experimentalReadout	reportedValue
COc1cc(C(=O)N2CCC[C@@H](N)C2)cc2nc(-c3cc4ccc([C@@H](C)NC(=O)N5CC(O)C5)nc4n3CC3CC3)c(C3CC3)n12 [Example 146]	pIC50	6.80
COc1cc(C(=O)N2CCC[C@@H](N)C2)cc2nc(-c3cc4ccc(O[C@@H](C)C(=O)N(C)C)nc4n3CC3CC3)c(C)n12 [Example 617]	pIC50	5.16
COc1cc(C(=O)N2C[C@H](N)CC[C@@H]2C)cc2nc(-c3cc4ccc(N(C)S(C)(=O)=O)nc4n3CC3CC3)c(C)n12 [Example 481]	pIC50	6.82
CCO[C@@H]1CCN(C(=O)c2cc(OC)n3c(C)c(-c4cc5ccc(N(C(F)F)S(C)(=O)=O)nc5n4CC4CC4)nc3c2)C[C@@H]1N [Example 340]	pIC50	6.64
COc1cc(C(=O)N2[C@H]3CC[C@@H]2[C@H](N)C3)cc2nc(-c3cc4ccc(N5CCN(c6ccccc6)CCS5(=O)=O)nc4n3CC3CC3)c(C)n12 [Example 444]	pIC50	6.89
COc1cc(C(=O)N2C[C@H](N)CC[C@@H]2C)cc2nc(-c3cc4ccc(-c5c(C)nn(CC(N)=O)c5C)nc4n3CC3CC3)c(C)n12 [Example 609]	pIC50	6.15
COc1cc(C(=O)N2[C@H]3CC[C@@H]2[C@H](N)C3)cc2nc(-c3cc4ccc(C5CCCCN5C(=O)C(C)(C)C)nc4n3CC3CC3)c(C)n12 (stereo partly drawn) [Example 514]	pIC50	6.13
CS(=O)(=O)N(c1ccc2cc(-c3nc4cc(C(=O)N5CC[C@@H](F)[C@@H](N)C5)ccn4c3C3CC3)n(CC3CC3)c2n1)C(F)F [Example 394]	pIC50	5.97

Please find the next molecule below.
## Task Please look at this molecule and report its pIC50: COc1cc(C(=O)N2[C@H]3CC[C@@H]2[C@H](N)C3)cc2nc(-c3cc4ccc(C(C)CC(N)=O)nc4n3CC3CC3)c(C)n12 (stereo partly drawn) [Example 520]
## Result 7.13

====

biological target: human PAD4 (Homo sapiens); construct: human PAD4 (NM_012387), A2P663, was PCR amplified; His-SUMO (N, cleaved yes); experiment: In vitro PAD4 BAEE biochemical assay; details: human PAD4, BAEE substrate; 5 nM PAD4, 2 mM calcium chloride, 3 mM BAEE; geometric mean of multiple experiments
pIC50: −log10 of the molar value.
Label 1.0 when pIC50 >= 7; otherwise 0.0.

compound	classification
COc1cc(C(=O)N2[C@H]3CC[C@@H]2[C@H](N)C3)cc2nc(-c3cc4ccc([C@@H](C)N5CCOC5=O)nc4n3CC3CC3)c(C)n12 [Example 275]	1.0
CC(=O)NCc1c(-c2cc3ccc(N(C(F)F)S(C)(=O)=O)nc3n2CC2CC2)nc2cc(C(=O)N3CCC[C@@H](N)C3)ccn12 [Example 437]	0.0
COc1cc(C(=O)N2[C@H]3CC[C@@H]2[C@H](N)C3)cc2nc(-c3cc4ccc([C@@H](C)NC(=O)N5CC[C@H](F)C5)nc4n3CC3CC3)c(C3CC3)n12 [Example 216]	1.0

For the next question, use this compound.
## Task Record COc1cc(C(=O)N[C@H]2CNC[C@@H](C)C2)cc2nc(-c3cc4ccc(N(C(F)F)S(C)(=O)=O)nc4n3CC3CC3)c(C)n12 [Example 317] ; criterion: pIC50 no lower than 7. Met?
## Result 0.0

====

target: human PAD4 (Homo sapiens, UniProt Q9UM07); construct: human PAD4 (NM_012387), A2P663, was PCR amplified; His-SUMO (N, cleaved yes); assay: In vitro PAD4 BAEE biochemical assay; conditions: human PAD4, BAEE substrate; 5 nM PAD4, 2 mM calcium chloride, 3 mM BAEE; geometric mean of multiple experiments
Listing: IC50 of selected compounds
Record the value in nM, omitting the unit from your answer.

compound	measuredTarget	experimentalReadout	unitInfo	reportedValue
COc1cc(C(=O)N2[C@H]3CC[C@@H]2[C@H](N)C3)cc2nc(-c3cc4ccc([C@@H](C)NC(=O)N(C)Cc5ccccc5)nc4n3CC3CC3)c(C)n12	human PAD4 (Homo sapiens, UniProt Q9UM07)	IC50	nM	84.4
COc1cc(C(=O)N2[C@H]3CC[C@@H]2[C@H](N)C3)cc2nc(-c3cc4ccc(C(C)CN5CCOCC5)nc4n3CC3CC3)c(C)n12 (stereo partly shown)	human PAD4 (Homo sapiens, UniProt Q9UM07)	IC50	nM	108
COc1cc(C(=O)N2[C@H]3CC[C@@H]2[C@H](N)C3)cc2nc(-c3cc4ccc([C@@H](C)NC(=O)NC5COC5)nc4n3CC3CC3)c(C)n12	human PAD4 (Homo sapiens, UniProt Q9UM07)	IC50	nM	108

# ---- query compound ----
## Task Identify measured IC50 corresponding to COc1cc(C(=O)N2[C@H]3CC[C@@H]2[C@H](N)C3)cc2nc(-c3cc4ccc([C@@H](C)NC(=O)C(C)(O)C(C)C)nc4n3CC3CC3)c(C)n12 (stereo partly shown)
## Result 68.4

====

molecular target: human PAD4 (Homo sapiens); construct: human PAD4 (NM_012387), A2P663, was PCR amplified; His-SUMO (N, cleaved yes); assay: In vitro PAD4 BAEE biochemical assay; details: human PAD4, BAEE substrate; 5 nM PAD4, 2 mM calcium chloride, 3 mM BAEE; geometric mean of multiple experiments
pIC50: −log10 of the molar value.
Please mark TRUE if the recorded pIC50 is equal to or greater than 7, and FALSE if it falls below.

>>> df
                                   compound  classification
0  COc1cc(C(=O)N2C[C@@H]3CC[C@H]2[C@@H](N)C3)cc2nc(-c3cc4ccc(N(C(F)F)S(C)(=O)=O)nc4n3CC3CC3)c(C)n12           FALSE
1  COc1cc(C(=O)N2[C@H]3CC[C@@H]2[C@H](N)C3)cc2nc(-c3cc4ccc(N5Cc6ccccc6CS5(=O)=O)nc4n3CC3CC3)c(C)n12           FALSE
2  COc1cc(C(=O)N2[C@H]3CC[C@@H]2[C@H](N)C3)cc2nc(-c3cc4ccc([C@@H](C)NC(=O)CCC(=O)NS(=O)(=O)c5ccccc5)nc4n3CC3CC3)c(C)n12            TRUE

Note: attention shifts to another entry.
## Task Decide: is the reported value of pIC50 for COc1cc(C(=O)N2[C@H]3CC[C@@H]2[C@H](N)C3)cc2nc(-c3cc4ccc(C5CCCCN5C(=O)N5CCCC5)nc4n3CC3CC3)c(C)n12 (some centres unmarked) equal to or greater than 7?
## Result FALSE

====

target: human PAD4 (Homo sapiens, UniProt Q9UM07); construct: human PAD4 (NM_012387), A2P663, was PCR amplified; His-SUMO (N, cleaved yes); assay: In vitro PAD4 BAEE biochemical assay; conditions: human PAD4, BAEE substrate; 5 nM PAD4, 2 mM calcium chloride, 3 mM BAEE; geometric mean of multiple experiments
Label Met when IC50 is strictly below 100 nM; at or above that, label Not met.

Observe how each entry below is paired with its result.
compound	classification
COc1cc(C(=O)N2[C@H]3CC[C@@H]2[C@H](N)C3)cc2nc(-c3cc4ccc(C5CCN(C)C(=O)C5)nc4n3CC3CC3)c(C)n12 (stereo partly shown)	Not met
COc1cc(C(=O)N2CC[C@H]3OCCCN[C@H]3C2)cc2nc(-c3cc4ccc(N(C(F)F)S(C)(=O)=O)nc4n3CC3CC3)c(C)n12	Not met
COc1cc(C(=O)N2[C@H]3CC[C@@H]2[C@H](N)C3)cc2nc(-c3cc4ccc(C(C)CC#N)nc4n3CC3CC3)c(C)n12 (stereo partly shown)	Met
COc1cc(C(=O)N2CCC[C@@H](N)C2)cc2nc(-c3cc4ccc([C@@H](C)N5CCOC5=O)nc4n3CC3CC3)c(C)n12	Not met
CCc1ccc2cc(-c3nc4cc(C(=O)N5[C@H]6CC[C@@H]5[C@H](N)C6)cc(OC)n4c3C)n(CCC3CC3)c2n1	Not met

## Task Is 100 nM strictly greater than the compound's reported IC50? compound: "COc1cc(C(=O)N2[C@H]3CC[C@@H]2[C@H](N)C3)cc2nc(-c3cc4ccc([C@@H](C)NC(=O)N5CCC5)nc4n3CC34CC(C3)C4)c(C)n12"
## Result Met

## Task Hi there! Is IC50 for "Cc1c(-c2cc3ccc(N(C(F)F)S(C)(=O)=O)nc3n2CC2CC2)nc2cc(C(=O)N3CCC[C@@H](N)C3)cc(C3CC3)n12" below 100 nM, do you know?
## Result Not met

## Task Hello, I'm reviewing records and need to know if IC50 of "COc1cc(C(=O)N2[C@H]3CC[C@@H]2[C@H](N)C3)cc2nc(-c3cc4ccc(C(C)(C)O)nc4n3CC3CC3)c(C)n12" is below 100 nM. Could you check?
## Result Not met

## Task Take the compound COc1cc(C(=O)N2[C@H]3CC[C@@H]2[C@H](N)C3)cc2nc(-c3cc4ccc([C@@H](C)N5C(=O)CCC5C)nc4n3CC3CC3)c(C)n12 (stereo partly shown) and say whether its IC50 is less than 100 nM.
## Result Met

## Task Is it true that IC50 reported for "COc1cc(C(=O)N2[C@@H]3CC[C@H]2[C@@H](N)[C@@H](OC)C3)cc2nc(-c3cc4ccc([C@@H](C)NC(=O)C56CC(F)(C5)C6)nc4n3CC3CC3)c(C)n12" is less than 100 nM?
## Result Not met

## Task In the record for "COc1cc(C(=O)N2[C@H]3CC[C@@H]2[C@H](N)C3)cc2nc(-c3cc4ccc(N5[C@@H](C)CCCS5(=O)=O)nc4n3CC3CC3)c(C)n12" , is IC50 less than 100 nM?
## Result Met

## Task Take the compound "COc1cc(C(=O)N2[C@H]3CC[C@@H]2[C@H](N)C3)cc2nc(-c3cc4ccc(-c5cncc(F)c5C)nc4n3CC3CC3)c(C)n12" and say whether its IC50 is less than 100 nM.
## Result Not met

## Task Determine if COc1cc(C(=O)N2[C@H]3CC[C@@H]2[C@H](N)C3)cc2nc(-c3cc4ccc([C@@H](C)NC(=O)N5CC6CC6C5)nc4n3CC3CC3)c(C)n12 (stereo partly shown) shows IC50 strictly lower than 100 nM.
## Result Met
